Target: Glucocorticoid receptor (Homo sapiens) (UniProt P04150)
Sequence (whole entry): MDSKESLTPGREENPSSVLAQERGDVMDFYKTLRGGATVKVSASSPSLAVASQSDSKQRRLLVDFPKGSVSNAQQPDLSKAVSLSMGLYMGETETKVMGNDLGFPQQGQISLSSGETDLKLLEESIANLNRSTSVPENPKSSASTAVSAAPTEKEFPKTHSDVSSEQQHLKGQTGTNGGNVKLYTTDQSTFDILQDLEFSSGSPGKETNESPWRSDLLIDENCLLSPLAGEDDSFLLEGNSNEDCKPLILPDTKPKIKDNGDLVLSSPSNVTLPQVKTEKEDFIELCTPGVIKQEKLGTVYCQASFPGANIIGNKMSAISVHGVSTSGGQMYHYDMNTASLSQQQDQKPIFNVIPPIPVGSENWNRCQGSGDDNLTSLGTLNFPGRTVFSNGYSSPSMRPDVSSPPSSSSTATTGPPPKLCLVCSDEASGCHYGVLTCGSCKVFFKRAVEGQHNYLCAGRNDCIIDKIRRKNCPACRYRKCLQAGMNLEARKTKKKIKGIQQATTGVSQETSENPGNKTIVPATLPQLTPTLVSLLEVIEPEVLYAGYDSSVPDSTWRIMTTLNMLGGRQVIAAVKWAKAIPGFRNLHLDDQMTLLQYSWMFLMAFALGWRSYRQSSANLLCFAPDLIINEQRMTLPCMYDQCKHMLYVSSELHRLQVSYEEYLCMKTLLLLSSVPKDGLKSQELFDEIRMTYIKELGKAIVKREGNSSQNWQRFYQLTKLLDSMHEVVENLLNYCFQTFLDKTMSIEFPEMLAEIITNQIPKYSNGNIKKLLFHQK
Test: Relative binding affinity against glucocorticoid receptor
Checkbox rule: Relative binding affinity lower than 5 = Yes; Relative binding affinity not lower than 5 = No.

- compound: "CC(=O)[C@H]1CCC2C3CCC4=CC(=O)CCC4=C3C=CC21C (stereo not given in full)"
  assignedClass: "Yes"
- compound: "C#C[C@]1(O)CCC2C3CCC4=CC(=O)CCC4=C3CCC21CCC (stereo not given in full)"
  assignedClass: "No"
- compound: "C#C[C@]1(O)CCC2C3CCC4=CC(=O)CCC4=C3C=CC21CCC (stereo not given in full)"
  assignedClass: "No"
- compound: "C[C@@H]1CC2=CC(=O)CC[C@@H]2[C@H]2CC[C@@]3(C)[C@@H](CC[C@]3(C)O)[C@@H]21"
  assignedClass: "Yes"
- compound: "C[C@]1(O)CC[C@H]2[C@@H]3CCC4=CC(=O)CCC4=C3C=C[C@@]21C (stereo in doubt; 39)"
  assignedClass: "No"
- compound: "C#C[C@]1(O)CCC2C3CCC4=CC(=O)CCC4C3CCC21CCC (stereo not given in full)"
  assignedClass: "No"
- compound: "CC1(C)CC2=C3C=CC4(C)C(CC[C@]4(C)O)C3CCC2=CC1=O (stereo not given in full)"
  assignedClass: "Yes"
- compound: "CC(=O)[C@@]1(C)CCC2C3CCC4=CC(=O)CCC4C3CCC21C (stereo not given in full)"
  assignedClass: "Yes"
- compound: "CC12C=CC3=CCCCC3C1CC[C@]2(C)O (stereo not given in full)"
  assignedClass: "No"

====

Target: Glucocorticoid receptor (Homo sapiens)
Assay: Relative binding affinity against glucocorticoid receptor
Rule: Relative binding affinity under 10 gives not satisfied, otherwise satisfied.

- compound: "C#C[C@]1(O)CCC2C3CCC4=CC(=O)CCC4C3CCC21CC (stereo partly specified)"
  assignedClass: "satisfied"
- compound: "CC12CCC3=C4CCC(=O)C=C4CCC3C1CC[C@]2(C)O (stereo partly specified)"
  assignedClass: "not satisfied"
- compound: "CC12CCC3=C4CCC(=O)C=C4CCC3C1CC[C@@]21CCS(=O)O1 (stereo partly specified)"
  assignedClass: "satisfied"
- compound: "CC12C=CC3=C4CCC(=O)C=C4CCC3C1CC[C@@]21CCS(=O)O1 (stereo partly specified)"
  assignedClass: "satisfied"
- compound: "CC1CC2=C3C=CC4(C)C(CC[C@]4(C)O)C3CCC2=CC1=O (stereo partly specified)"
  assignedClass: "not satisfied"
- compound: "CCC12C=CC3=C4CCC(=O)C=C4CCC3C1CC[C@]2(C)O (stereo partly specified)"
  assignedClass: "satisfied"
- compound: "CC12C=CC3=C4CCCC=C4CCC3C1CC[C@]2(C)O (stereo partly specified)"
  assignedClass: "not satisfied"
- compound: "C#C[C@]1(O)CC[C@H]2[C@@H]3CCC4=CC(=O)CCC4=C3C=C[C@@]21CC"
  assignedClass: "satisfied"
- compound: "CCC12C=CC3=C4CCC(=O)C=C4CCC3C1CC[C@@H]2O (stereo partly specified)"
  assignedClass: "satisfied"
- compound: "C[C@]12CC[C@H]3[C@@H](CCC4=CC(=O)CC[C@@H]43)[C@@H]1CC[C@@H]2O"
  assignedClass: "not satisfied"
- compound: "CC1=C2CCC3C(=C2CCC1=O)C=CC1(C)C3CC[C@]1(C)O (stereo partly specified)"
  assignedClass: "not satisfied"

====

Biological target: Glucocorticoid receptor (Homo sapiens) (UniProt P04150)
Assay: Relative binding affinity against glucocorticoid receptor
In this section we review reported Relative binding affinity values for a set of compounds.

- compound: "CC12CCC3C4CCC(=O)C=C4CCC3C1CC[C@@]21CCC(=O)O1 (some centres undefined)"
  Relative binding affinity: 0.1
- compound: "CCC12C=CC3=C4CCC(=O)C=C4C[C@@H](C)C3C1CC[C@]2(C)O (some centres undefined)"
  Relative binding affinity: 145
- compound: "CCC12CCC3=C4CCC(=O)C=C4CCC3C1CC[C@@H]2O (some centres undefined)"
  Relative binding affinity: 5.1
- compound: "CCCC12CCC3=C4CCC(=O)C=C4CCC3C1CC[C@@H]2O (some centres undefined)"
  Relative binding affinity: 1.9

Provenance of the data: ChEMBL document CHEMBL1123211
